System: A498 renal
ASSAY_PROTOCOL: NCI-60 one-dose screen, 48 h (100 = growth as untreated, 0 = no growth, -100 = all killed)
PROTOCOL_CONDITIONS: 10 µM
This is part of a sample that, as a whole, favours compounds with a hit. Of some 83,000 tested, about 20% had one in any assay.
VALUE_TYPE: growth (%)
The response must be a number in % with no trailing unit.

Enquiry: In one line, give reported growth of the entry O=[N+]([O-])c1ccccc1N=Nc1ccc(O)cc1O .
Return: 139

Enquiry: In one line, give reported growth of the entry CCCCC1(CC)COC(CCC)OC1 (stereo not drawn) .
Return: 127

Enquiry: In one line, give reported growth of the entry C[N+](C)(C)C(=O)c1ccccc1 .
Return: 98

Enquiry: In one line, give reported growth of the entry Nc1nc2c(c(-c3nc(N)nc4c3CCc3ccccc3-4)n1)CCc1ccccc1-2 .
Return: 125

Enquiry: In one line, give reported growth of the entry CC(=O)c1ccc(N=C(C#N)C2=C(O)c3ccccc3C2=O)cc1 .
Return: 88.1

Enquiry: In one line, give reported growth of the entry CC(=O)OC(OC(C)=O)C1CCCO1 (stereo not drawn) .
Return: 106

Enquiry: In one line, give reported growth of the entry Oc1ccc2c(c1)OCC1(O)Cc3cc(O)c(O)cc3C21 (stereo not drawn) .
Return: 99.1

Enquiry: In one line, give reported growth of the entry COC(=O)C(C)Oc1ccc(OC#N)cc1 (stereo not drawn) .
Return: 107

Enquiry: In one line, give reported growth of the entry CN(C)C(=O)Oc1cccc([N+](C)(C)C)c1 .
Return: 95.5

Enquiry: In one line, give reported growth of the entry C=CCOC(=O)C(=O)OCC=C .
Return: 119

Enquiry: In one line, give reported growth of the entry O=C(CCl)N1CCN(C/C=C/c2ccccc2)CC1 .
Return: 94

Enquiry: In one line, give reported growth of the entry Cc1cc(=O)cc(C)n1-c1ccccc1 .
Return: 103

Enquiry: In one line, give reported growth of the entry CC(=O)c1ccc2c(ccc3ccccc32)c1 .
Return: 92.8

---

System: MDA-MB-231 breast
ASSAY_PROTOCOL: NCI-60 one-dose screen, 48 h (100 = growth as untreated, 0 = no growth, -100 = all killed)
PROTOCOL_CONDITIONS: 10 µM
This is part of a sample that, as a whole, favours compounds with a hit. Of some 83,000 tested, about 20% had one in any assay.
VALUE_TYPE: growth (%)
The response must be a number in % with no trailing unit.

Enquiry: In one line, give reported growth of the entry O=c1cc2oc3cc(O)c(O)cc3c(-c3ccccc3O)c-2cc1O .
Return: 81.9

Enquiry: In one line, give reported growth of the entry N#CC(=Nc1cccc(F)c1)C1=C(O)c2ccccc2C1=O .
Return: 84.5

Enquiry: In one line, give reported growth of the entry Cc1cc(OCCO)cc(C)c1Cl .
Return: 114

Enquiry: In one line, give reported growth of the entry CC(=O)c1cc2c(cc1F)C(C)(C)CCC2(C)C .
Return: 103

Enquiry: In one line, give reported growth of the entry COc1cc2cc(OC(C)=O)c3cc4c(cc3c2c(OC)c1OC)OCO4 .
Return: 108

Enquiry: In one line, give reported growth of the entry NC(CSC(c1ccccc1)(c1ccccc1)c1ccccc1)C(=O)O (configuration not stated) .
Return: 4.8

Enquiry: In one line, give reported growth of the entry N=c1c(C(=O)OCc2ccccc2)ncc(CCl)n1O .
Return: 95.8

Enquiry: In one line, give reported growth of the entry CC(=O)OC(C(=O)O)c1ccccc1 (configuration not stated) .
Return: 105

Enquiry: In one line, give reported growth of the entry C#CCSc1nnnn1-c1ccc(Br)c(C)c1 .
Return: 98.4

Enquiry: In one line, give reported growth of the entry CC(=O)Nc1cccc(Cl)c1C .
Return: 99.5

Enquiry: In one line, give reported growth of the entry Cn1cnc2nc(Cl)nc(Cl)c21 .
Return: 20.9

Enquiry: In one line, give reported growth of the entry Cc1nc2ccccc2c2nnc(SCC(=O)N(Cc3ccccc3)c3ccccc3)n12 .
Return: 92.1

Enquiry: In one line, give reported growth of the entry CC(=O)NCc1cc(C)c(C)cc1C .
Return: 110

Enquiry: In one line, give reported growth of the entry CCC(O)CC(CC)CO (configuration not stated) .
Return: 108

Enquiry: In one line, give reported growth of the entry N#CCCN(CCCN1CCOCC1)CN1C(=O)c2ccccc2C1=O .
Return: 113

Enquiry: In one line, give reported growth of the entry COc1cc(C(N)=O)cc(OC)c1OC .
Return: 105

Enquiry: In one line, give reported growth of the entry O=c1[nH]n(-c2ccccc2)c(=O)cc1Cl .
Return: 97.2

Enquiry: In one line, give reported growth of the entry Cc1ncc(C#N)c(N)n1 .
Return: 98.9

Enquiry: In one line, give reported growth of the entry CC(=O)c1ccc(C(C)(C)C)cc1 .
Return: 107

Enquiry: In one line, give reported growth of the entry O=C(c1ccc(O)cc1)c1ccc(O)cc1 .
Return: 125

Enquiry: In one line, give reported growth of the entry COC(=O)/C=C/C(=O)NC(N)=O .
Return: 108

Enquiry: In one line, give reported growth of the entry COC1=CC(=O)c2nc(Cl)ccc2C1=O .
Return: -25.5

Enquiry: In one line, give reported growth of the entry O=C1N(C[P+](c2ccccc2)(c2ccccc2)c2ccccc2)CCCN1C[P+](c1ccccc1)(c1ccccc1)c1ccccc1 .
Return: 90.8

Enquiry: In one line, give reported growth of the entry O=c1[nH]nc(SC2CCCCC2)c(=O)[nH]1 .
Return: 102

Enquiry: In one line, give reported growth of the entry C#CC(C(C)C)N(CCO)CCCC (configuration not stated) .
Return: 113

Enquiry: In one line, give reported growth of the entry O=C(CCl)Nc1ccc2c(c1)C(=O)c1ccc(NC(=O)CCl)cc1C2=O .
Return: -48.2

Enquiry: In one line, give reported growth of the entry COc1ccccc1NC(=O)c1cc2cc(Br)ccc2cc1O .
Return: 3.51
